Measured GI50 by item
- Tested Target: BAF3-KIF5B-RET cells (Homo sapiens, UniProt P07949)
- Construct: fused on or other part: P33176 (Kinesin-1 heavy chain)
- Sequence (P07949 whole entry, change not shown, the tested form may be a part): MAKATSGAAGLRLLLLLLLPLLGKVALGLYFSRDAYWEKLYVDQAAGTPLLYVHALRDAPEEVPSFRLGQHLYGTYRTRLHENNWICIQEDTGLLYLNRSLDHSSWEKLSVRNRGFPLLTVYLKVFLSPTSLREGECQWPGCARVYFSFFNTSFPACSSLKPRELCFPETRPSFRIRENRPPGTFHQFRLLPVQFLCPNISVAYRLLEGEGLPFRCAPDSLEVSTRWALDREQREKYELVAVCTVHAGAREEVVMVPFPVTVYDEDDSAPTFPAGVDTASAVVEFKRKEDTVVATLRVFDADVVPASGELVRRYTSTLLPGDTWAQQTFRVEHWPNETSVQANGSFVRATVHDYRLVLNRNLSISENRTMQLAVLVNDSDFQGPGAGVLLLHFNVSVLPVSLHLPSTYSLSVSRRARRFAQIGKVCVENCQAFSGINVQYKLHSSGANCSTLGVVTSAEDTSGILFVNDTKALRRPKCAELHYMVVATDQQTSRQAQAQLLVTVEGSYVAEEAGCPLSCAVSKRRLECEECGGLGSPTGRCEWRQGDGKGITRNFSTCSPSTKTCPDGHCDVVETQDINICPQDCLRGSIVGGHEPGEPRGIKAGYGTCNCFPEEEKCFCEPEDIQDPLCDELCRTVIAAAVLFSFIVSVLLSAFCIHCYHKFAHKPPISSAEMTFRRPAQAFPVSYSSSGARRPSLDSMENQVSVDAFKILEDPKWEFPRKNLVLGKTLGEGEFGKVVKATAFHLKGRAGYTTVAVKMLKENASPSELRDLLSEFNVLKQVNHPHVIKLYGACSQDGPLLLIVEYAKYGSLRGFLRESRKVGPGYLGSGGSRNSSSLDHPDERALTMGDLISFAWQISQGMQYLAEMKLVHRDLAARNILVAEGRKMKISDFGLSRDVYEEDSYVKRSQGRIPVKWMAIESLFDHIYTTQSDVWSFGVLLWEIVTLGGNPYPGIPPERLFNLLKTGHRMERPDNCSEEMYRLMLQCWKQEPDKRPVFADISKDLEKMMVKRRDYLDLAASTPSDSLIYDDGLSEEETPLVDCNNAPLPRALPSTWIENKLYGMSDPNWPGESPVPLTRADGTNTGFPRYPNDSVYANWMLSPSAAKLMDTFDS
- Procedure Text: BAF3-KIF5B-RET Cell Proliferation Assay (CellTiter-Glo)
- Format: cell-based
- Experimental Parameters: growth inhibition, 72 hours; Table 2; read-out: BA/F3-KIF5B-RET Cellular activity
# number only, unit nM dropped from output

Solved cases (2 shown):
> print(dat)
                           molecular.string  reported.property  value.units  numeric.readout
1  COc1ccc(CN2C3CC2CN(c2ccc(-c4cc(-c5cc(C(C)(C)NC(C)=O)n(C)n5)cn5ncc(C#N)c45)cn2)C3)cn1               GI50           nM                4
2  COc1ccc(CN2C3CC2CN(c2ccc(-c4cc(-c5ccn(CC(C)(C)O)n5)cn5ncc(C#N)c45)cn2)C3)cn1               GI50           nM              0.7

Below: the item to evaluate.
Request: Output measured GI50 for this item: COc1ccc(CN2C3CC2CN(c2ccc(-c4cc(-c5ccc(C(C)(C)NC(C)=O)cn5)cn5ncc(C#N)c45)cn2)C3)cn1
Result: 1
